The measured values listed here are drawn from the supplement of paper PMC10307832.

Tested on: BEN
experiment notes: relative viability (nuclei count vs DMSO), 5 days (fraction); higher = more cells survive
experimental parameters: first compound 0.04 µM
// boundary case: relative viability equal to 0.7 maps to criterion not met; strictly smaller maps to criterion met

Reference set, count: 3
[
  {
    "molecule": "C[C@@H]1CN(CC(=O)Nc2ccc3c(c2)Cc2cccc(-c4cc(=O)cc(N5CCOCC5)o4)c2S3)C[C@H](C)O1 + NC(=O)Nc1cc(-c2cccc(F)c2)sc1C(=O)N[C@H]1CCCNC1 [AZD7762] (partner 0.2 µM)",
    "cat": "criterion met"
  },
  {
    "molecule": "COc1cc(N2CCC(C(N)=O)CC2)ccc1Nc1nc(N)c(Cl)c(Nc2ccccc2S(=O)(=O)C(C)C)n1 [HG-5-88-01] + CS(=O)(=O)CCNCc1ccc(-c2ccc3ncnc(Nc4ccc(OCc5cccc(F)c5)c(Cl)c4)c3c2)o1 [Lapatinib] (partner 2 µM)",
    "cat": "criterion not met"
  },
  {
    "molecule": "C[C@@H]1CN(CC(=O)Nc2ccc3c(c2)Cc2cccc(-c4cc(=O)cc(N5CCOCC5)o4)c2S3)C[C@H](C)O1 + CC(=O)Nc1cccc(-n2c(=O)n(C3CC3)c(=O)c3c(Nc4ccc(I)cc4F)n(C)c(=O)c(C)c32)c1 [Trametinib] (partner 0.02 µM)",
    "cat": "criterion not met"
  }
]

Req: hey, is relative viability for C[C@@H]1CN(CC(=O)Nc2ccc3c(c2)Cc2cccc(-c4cc(=O)cc(N5CCOCC5)o4)c2S3)C[C@H](C)O1 + CC1(C)CCC(c2ccc(Cl)cc2)=C(CN2CCN(c3ccc(C(=O)NS(=O)(=O)c4ccc(N[C@H](CCN5CCOCC5)CSc5ccccc5)c(S(=O)(=O)C(F)(F)F)c4)cc3)CC2)C1 [Navitoclax] (partner 0.5 µM) lower than 0.7 or not?
Resp: criterion met

Req: # strict comparison: is reported relative viability < 0.7? input = COc1cc(N2CCC(C(N)=O)CC2)ccc1Nc1nc(N)c(Cl)c(Nc2ccccc2S(=O)(=O)C(C)C)n1 [HG-5-88-01] + CC1(C)CCC(c2ccc(Cl)cc2)=C(CN2CCN(c3ccc(C(=O)NS(=O)(=O)c4ccc(N[C@H](CCN5CCOCC5)CSc5ccccc5)c(S(=O)(=O)C(F)(F)F)c4)cc3)CC2)C1 [Navitoclax] (partner 0.5 µM)
Resp: criterion met

Req: API: query returns whether the molecule falls strictly under 0.7 in relative viability. Query: Clc1ccc(Nc2nnc(Cc3ccncc3)c3ccccc23)cc1 [Vatalanib] + CC(C)C[C@H](NC(=O)[C@H](Cc1ccccc1)NC(=O)c1cnccn1)B(O)O [Bortezomib] (partner 0.002 µM)
Resp: criterion not met

Req: Hello, is relative viability of the following molecule strictly smaller than 0.7? C[C@@H]1CN(CC(=O)Nc2ccc3c(c2)Cc2cccc(-c4cc(=O)cc(N5CCOCC5)o4)c2S3)C[C@H](C)O1 + CS(=O)(=O)CCNCc1ccc(-c2ccc3ncnc(Nc4ccc(OCc5cccc(F)c5)c(Cl)c4)c3c2)o1 [Lapatinib] (partner 2 µM)
Resp: criterion met

* * *

Please go through the items and note down their relative viability.
System: CAL-12T
experiment notes: relative viability (nuclei count vs DMSO), 5 days (fraction); higher = more cells survive
experimental parameters: first compound 2.53 µM
Answers are plain numbers.

Would you please look over these solved cases?
[
  {
    "compound": "CCCCCCCCCCCC1=C(O)C(=O)C=C(O)C1=O [Embelin] + COc1cccc2cc(-c3nc([C@H]4CC[C@H](C(=O)O)CC4)n4ncnc(N)c34)[nH]c12 [OSI-027] (partner 0.5 µM)",
    "relative viability": 0.513
  },
  {
    "compound": "CCCCCCCCCCCC1=C(O)C(=O)C=C(O)C1=O [Embelin] + Nc1nc2[nH]cc(CCc3ccc(C(=O)N[C@@H](CCC(=O)O)C(=O)O)cc3)c2c(=O)[nH]1 [Pemetrexed] (partner 0.2 µM)",
    "relative viability": 1.1
  },
  {
    "compound": "CCCCCCCCCCCC1=C(O)C(=O)C=C(O)C1=O [Embelin] + NC(=O)Nc1cc(-c2cccc(F)c2)sc1C(=O)N[C@H]1CCCNC1 [AZD7762] (partner 0.2 µM)",
    "relative viability": 0.61
  },
  {
    "compound": "CCCCCCCCCCCC1=C(O)C(=O)C=C(O)C1=O [Embelin] + C[C@@H](Oc1cc(-c2cnn(C3CCNCC3)c2)cnc1N)c1c(Cl)ccc(F)c1Cl [Crizotinib] (partner 1 µM)",
    "relative viability": 0.724
  },
  {
    "compound": "CCCCCCCCCCCC1=C(O)C(=O)C=C(O)C1=O [Embelin] + Cc1cc(Nc2cc(N3CCN(C)CC3)nc(Sc3ccc(NC(=O)C4CC4)cc3)n2)n[nH]1 [Tozasertib] (partner 0.1 µM)",
    "relative viability": 0.372
  },
  {
    "compound": "CCCCCCCCCCCC1=C(O)C(=O)C=C(O)C1=O [Embelin] + CCNC(=O)c1noc(-c2cc(C(C)C)c(O)cc2O)c1-c1ccc(CN2CCOCC2)cc1 [Luminespib] (partner 0.01 µM)",
    "relative viability": 0.626
  }
]

Okay, next one:
Req: Give the measured relative viability of CCCCCCCCCCCC1=C(O)C(=O)C=C(O)C1=O [Embelin] + O=C(CCCCCCC(=O)Nc1ccccc1)NO [Vorinostat] (partner 1 µM) .
Resp: 0.677

* * *

Tested on: NCI-H1975
experiment notes: relative viability (nuclei count vs DMSO), 5 days (fraction); higher = more cells survive
experimental parameters: first compound 0.01 µM
With a cut-off of 0.4, any relative viability strictly below it is called y; any relative viability meeting it or above is called n.

Answered examples (3):
[
  {
    "molecule": "CC(C)Oc1cc(Nc2nc(N[C@@H](C)c3ccc(F)cn3)ncc2Cl)n[nH]1 [AZ23] + CC(=O)Nc1cccc(-n2c(=O)n(C3CC3)c(=O)c3c(Nc4ccc(I)cc4F)n(C)c(=O)c(C)c32)c1 [Trametinib] (partner 0.02 µM)",
    "cat": "y"
  },
  {
    "molecule": "CC(C)Oc1cc(Nc2nc(N[C@@H](C)c3ccc(F)cn3)ncc2Cl)n[nH]1 [AZ23] + CS(=O)(=O)N1CCN(Cc2cc3nc(-c4cccc5[nH]ncc45)nc(N4CCOCC4)c3s2)CC1 [Pictilisib] (partner 1 µM)",
    "cat": "y"
  },
  {
    "molecule": "CC(C)Oc1cc(Nc2nc(N[C@@H](C)c3ccc(F)cn3)ncc2Cl)n[nH]1 [AZ23] + C[C@@H](Oc1cc(-c2cnn(C3CCNCC3)c2)cnc1N)c1c(Cl)ccc(F)c1Cl [Crizotinib] (partner 1 µM)",
    "cat": "n"
  }
]

Req: Quick check: does CC(C)Oc1cc(Nc2nc(N[C@@H](C)c3ccc(F)cn3)ncc2Cl)n[nH]1 [AZ23] + NC(=O)Nc1cc(-c2cccc(F)c2)sc1C(=O)N[C@H]1CCCNC1 [AZD7762] (partner 0.2 µM) have relative viability under 0.4?
Resp: n

Req: Criterion: relative viability strictly below 0.4. Is it met by CC(C)Oc1cc(Nc2nc(N[C@@H](C)c3ccc(F)cn3)ncc2Cl)n[nH]1 [AZ23] + CCNC(=O)c1noc(-c2cc(C(C)C)c(O)cc2O)c1-c1ccc(CN2CCOCC2)cc1 [Luminespib] (partner 0.01 µM) ?
Resp: y

* * *

Test system: NCI-H322M
experiment notes: relative viability (nuclei count vs DMSO), 5 days (fraction); higher = more cells survive
experimental parameters: first compound 0.03162 µM
measured property: relative viability

[
  {
    "molecule": "CC(C)Oc1cc(Nc2nc(N[C@@H](C)c3ccc(F)cn3)ncc2Cl)n[nH]1 [AZ23] + COc1cc2c(Oc3ccc(NC(=O)C4(C(=O)Nc5ccc(F)cc5)CC4)cc3F)ccnc2cc1OCCCN1CCOCC1 [Foretinib] (partner 0.25 µM)",
    "relative viability": 0.96
  },
  {
    "molecule": "CC(C)Oc1cc(Nc2nc(N[C@@H](C)c3ccc(F)cn3)ncc2Cl)n[nH]1 [AZ23] + C[C@]1(O)C[C@@H](c2nc(-c3ccc4ccc(-c5ccccc5)nc4c3)c3c(N)nccn32)C1 [Linsitinib] (partner 1 µM)",
    "relative viability": 0.957
  },
  {
    "molecule": "CC(C)Oc1cc(Nc2nc(N[C@@H](C)c3ccc(F)cn3)ncc2Cl)n[nH]1 [AZ23] + CC(=O)c1c(C)c2cnc(Nc3ccc(N4CCNCC4)cn3)nc2n(C2CCCC2)c1=O [Palbociclib] (partner 0.5 µM)",
    "relative viability": 0.472
  },
  {
    "molecule": "CC(C)Oc1cc(Nc2nc(N[C@@H](C)c3ccc(F)cn3)ncc2Cl)n[nH]1 [AZ23] + C[C@@H](Oc1cc(-c2cnn(C3CCNCC3)c2)cnc1N)c1c(Cl)ccc(F)c1Cl [Crizotinib] (partner 1 µM)",
    "relative viability": 1.14
  }
]

Alright, here's another molecule for you.
Req: For the molecule CC(C)Oc1cc(Nc2nc(N[C@@H](C)c3ccc(F)cn3)ncc2Cl)n[nH]1 [AZ23] + CC(=O)Nc1cccc(-n2c(=O)n(C3CC3)c(=O)c3c(Nc4ccc(I)cc4F)n(C)c(=O)c(C)c32)c1 [Trametinib] (partner 0.02 µM) , what relative viability is on record?
Resp: 0.481
